meta.source: the array DNA melting data of Ke et al. (doi:10.1101/2024.01.08.574731)

Let's look at some sequences and their measured folding enthalpy.
- assay text: folding enthalpy; higher = less favourable; fluorescence melt of hairpins on a sequencing array, two-state fit
- experimental context: sodium 0.088 M
Value expressed in kcal/mol; do not type the unit.

Worked cases, folding enthalpy given:
entry sequence	folding enthalpy / kcal/mol
GGTTGCGAAAGCACACC ((((((....))).)))	-19.7
GCTGACGAAAGTCCAAGC ((((((....)))..)))	-16.5
GGGACTGGAAACGGTCTC (.(((.(....).))).)	-23.1
GGCCTAGAAATAGGCC ((((((....))))))	-34.9

As a next step, examine the sequence that follows.
folding enthalpy lookup needed for GAGGGCGAAAGCCATCTC ((((((....)))..))) , thanks.
-16.2

###

# Tm per record follows
- assay text: melting temperature; fluorescence melt of hairpins on a sequencing array, two-state fit, raised by 9.35 °C to match UV melts
- experimental context: sodium 0.088 M
Only the number, expressed in °C, is required.

// known answers, use as guide
entry sequence	observed value
GAATGCGAAAGCACTTTC ((((((....)))..)))	28.9
GCCACGCGAAAGCGGCGC ((..(((....)))..))	60.8
GTCGACGAAAGTCACGAC ((((((....)))..)))	45.4
GGCATCCCGAAAGGGGCC (((..(((....))))))	52.3
GATCCCGACGGGGATC ((((((....))))))	65.8

Given the sequence GCATTCGGAAACGGATGC ((((.((....)).)))) , what is its reported Tm?
54

###

Known Tm of a selection of sequences
- assay text: melting temperature; fluorescence melt of hairpins on a sequencing array, two-state fit, raised by 9.35 °C to match UV melts
- experimental context: sodium 0.088 M
Quick reminder: number only, in °C, skip the unit.

Take a look at these entries with their results.
entry sequence	assay readout	unit info	observed value
GCCACGCGAAAGCATAGC ((.(.((....)).).))	Tm	°C	26.7
GATCATGAGAATGATC ((((((....))))))	Tm	°C	49.7
GTGCCCGAAAGGGATCAC ((((((....)))..)))	Tm	°C	40.3
GCCTCAGGAAACTAAGGC ((((.((....)).))))	Tm	°C	37.6
GGTTGCGAAAGCACACC ((((((....))).)))	Tm	°C	53.4
GTTGTGACGAAAGTCAAC (((..(((....))))))	Tm	°C	49.7

If you can, please state the reported Tm value of GTTGCTGGAAACAGTAAC (((.(((....))).))) .
47

I have this sequence here, GGGGAGCCGAAAGGCCCC (((..(((....)))))) , and I need its recorded Tm.
61.9

What value of Tm has been reported for the following sequence? GGATTAGGAAACTAACCC ((.((((....)))).))
30.1

Consider the sequence GCGTTGTGACGC ((((....)))) and give its measured Tm.
59

Record request: Tm value, item GCAAACCGAAAGGTATGC (((.(((....))).)))
53.4

GET /values?readout=Tm&item= GTCTTAACGAAAGTTGAC (((..(((....))))))
31.9

###

Each record here notes measured Tm.
- assay text: melting temperature; fluorescence melt of hairpins on a sequencing array, two-state fit, raised by 9.35 °C to match UV melts
- experimental context: sodium 0.088 M
Answer in °C, number only, no unit symbol.

Known results for sequences:
entry sequence	assay readout	observed value
GCAACGGGAAACCGTCGC ((.((((....)))).))	Tm	49.4
GGCGGAGGAAACCCCGCC (((((.(....).)))))	Tm	64.5
GTATTCCGAAAGGACTAC (((.(((....))).)))	Tm	38.2

Form field: reported Tm of GCCAAACGAAAGTTGGC (((.(((....))))))
56.8

Requested read-out: Tm. Entry: GTGTACGGAAACGTATAC ((.((((....)))).))
46.6

# get_value(readout='Tm', item= GATCACAGCAGTGATC ((((((....)))))) )
59.5

Which Tm reading was recorded for the sequence GATCCAACCCTGGATC ((((((....)))))) ?
48.3

Entry GAGTCACGAAAGTGCCTC (((.(((....))).))) has what Tm?
50

For the sequence GACTTAGGAAACCAAGTC (((((.(....).))))) , what Tm is on record?
36

Entry under review: GACCATGGAAACATGATC ((.((((....)))).)) . Reported Tm?
35.4

Which value of Tm has been reported for GATCAACTAGTTGATC ((((((....)))))) in the records?
56.3

// query Tm value for entry GATCAGGCCGCTGATC ((((((....))))))
51.8

Need Tm of GGTCCCCGAAAGGGACC (((.(((....)))))) , thanks.
68.4

I would be grateful if you could share the reported Tm for GATCTAATCGTAGATC ((((((....)))))) .
36.1

Given GATTCGGGAAACCGAACC (.(((((....))))).) , state its recorded Tm.
40.2

For the sequence GGTCACCCGAAAGGGACC (((..(((....)))))) , what Tm is on record?
48.6

Requested field: Tm. Item: GCATCTCGAAAGAGTGC (((.(((....))))))
53.4

Need Tm of GTAAGCGAAAGCTGGTAC ((((((....)))..))) , thanks.
32.3
